- subject-of-test: TYK2 (aa 871-1187, catalytic domain, GST-tag) (Homo sapiens, UniProt P29597)
- Construct: JAK1 (aa 850-1154) and TYK2 (aa 871-1187) are expressed with an N-terminally fused GST-tag; GST (N); purchased Carna Biosciences, Inc; host or cells: baculovirus expression system
- Sequence (P29597 871-1187): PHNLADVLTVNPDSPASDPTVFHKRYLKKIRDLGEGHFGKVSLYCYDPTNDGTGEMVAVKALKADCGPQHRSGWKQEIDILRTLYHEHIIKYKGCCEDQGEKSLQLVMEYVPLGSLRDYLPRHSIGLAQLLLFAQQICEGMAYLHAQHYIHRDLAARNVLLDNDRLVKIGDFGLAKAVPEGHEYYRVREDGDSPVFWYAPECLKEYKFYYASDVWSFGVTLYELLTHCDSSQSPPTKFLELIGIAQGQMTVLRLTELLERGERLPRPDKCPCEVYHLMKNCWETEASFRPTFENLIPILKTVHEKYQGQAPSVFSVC
- method-summary: JAK kinase assay (HTRF, phosphorylation of TK substrate-biotin), TYK2
- Assay type: biochemical
- run-conditions: HTRF assay, ATP at Km (13 μM); read-out: TYK2 kinase inhibitory activity (EC50 indicator)
pEC50: −log10 of the molar value.
recorded-endpoint: pEC50

Examples with their reported pEC50 follow.
{"molecule": "O=C([C@@H]1CCCc2ccccc21)N1CCN(c2ncnc3[nH]ccc23)CC12CC2 [Example 415]", "recorded-endpoint": "pEC50", "observed": "< 6.30"}
{"molecule": "Cc1ccc(S(N)(=O)=O)cc1C(=O)N1CCN(c2ncnc3[nH]ccc23)CC12CC2 [Example 388]", "recorded-endpoint": "pEC50", "observed": "< 6.30"}

QUERY: Given the molecule N#Cc1ccc(C(=O)N2CCN(c3ccnc4[nH]ccc34)CC23CC3)cc1 [Example 226] , what is its reported pEC50?
RESULT: < 6.30

QUERY: Given the molecule Nc1nc(N2CCN(C(=O)c3cnc4ccccc4n3)C3(CC3)C2)c2cc[nH]c2n1 [Example 305] , what is its reported pEC50?
RESULT: 6.30 to 7.00

QUERY: Given the molecule Cc1cnc(C(=O)N2CCN(c3ncnc4[nH]ccc34)CC23CC3)cn1 [Example 414] , what is its reported pEC50?
RESULT: 6.30 to 7.00

QUERY: Given the molecule N#Cc1ccc(C(=O)N2C[C@@H]3C[C@H]2CN3c2ncnc3[nH]ccc23)cc1 [Example 258] , what is its reported pEC50?
RESULT: < 6.30

QUERY: Given the molecule N#CC1(C(=O)N2CCN(c3nc(N)nc4[nH]ccc34)CC23CC3)CC1 [Example 308] , what is its reported pEC50?
RESULT: < 6.30

QUERY: Given the molecule CC(C)CNS(=O)(=O)c1csc(C(=O)N2CCN(c3ncnc4[nH]ccc34)CC23CC3)c1 [Example 423] , what is its reported pEC50?
RESULT: < 6.30

* * *

- subject-of-test: JAK3 (catalytic domain, His-tag) (Homo sapiens, UniProt P52333)
- Construct: All four purified enzymes contain only the catalytic domain; His (N); purchased Carna Biosciences, Inc; host or cells: baculovirus expression system
- Sequence (P52333 822-1111 limits assumed): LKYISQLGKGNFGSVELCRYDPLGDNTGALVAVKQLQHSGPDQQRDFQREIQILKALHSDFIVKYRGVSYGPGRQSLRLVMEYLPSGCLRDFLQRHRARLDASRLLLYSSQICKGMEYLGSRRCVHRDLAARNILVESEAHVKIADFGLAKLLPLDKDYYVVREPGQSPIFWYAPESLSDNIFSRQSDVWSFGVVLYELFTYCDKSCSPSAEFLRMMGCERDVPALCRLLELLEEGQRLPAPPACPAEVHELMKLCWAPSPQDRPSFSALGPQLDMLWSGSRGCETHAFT
- method-summary: JAK kinase assay (HTRF, phosphorylation of TK substrate-biotin), JAK3
- Type: biochemical
- run-conditions: ATP at Km (2 μM); read-out: JAK3 kinase inhibitory activity (EC50 indicator)
pEC50: −log10 of the molar value.
In this section we review reported pEC50 values for a set of compounds.

{"compound": "O=C(c1ccc2sccc2c1)N1CCN(c2ncnc3[nH]ccc23)CC12CC2", "observed": "6.30 to 7.00"}
{"compound": "N#Cc1csc(C(=O)N2C3CCC2CN(c2ncnc4[nH]ccc24)C3)c1", "observed": "> 7.00"}
{"compound": "N#Cc1ccc(CC(=O)N2CCN(c3ncnc4[nH]ccc34)CC23CC3)cc1", "observed": "> 7.00"}
{"compound": "CS(=O)(=O)c1ccc(C(=O)N2C3CCC2CN(c2ncnc4[nH]ccc24)C3)cc1F", "observed": "6.30 to 7.00"}
{"compound": "CS(=O)(=O)c1cccc(CC(=O)N2CCN(c3ncnc4[nH]ccc34)CC23CC3)c1", "observed": "6.30 to 7.00"}

Please find the next compound below.
QUERY: Given the compound COCCOCC(=O)Nc1nc(N2CCN(C(=O)Cc3ccc(C#N)cc3)C3(CC3)C2)c2cc[nH]c2n1 , what is its reported pEC50?
RESULT: 6.30 to 7.00

* * *

- subject-of-test: JAK1 (aa 850-1154, catalytic domain, GST-tag) (Homo sapiens, UniProt P23458)
- Construct: JAK1 (aa 850-1154) and TYK2 (aa 871-1187) are expressed with an N-terminally fused GST-tag; GST (N); purchased Carna Biosciences, Inc; host or cells: baculovirus expression system
- Sequence (P23458 850-1154): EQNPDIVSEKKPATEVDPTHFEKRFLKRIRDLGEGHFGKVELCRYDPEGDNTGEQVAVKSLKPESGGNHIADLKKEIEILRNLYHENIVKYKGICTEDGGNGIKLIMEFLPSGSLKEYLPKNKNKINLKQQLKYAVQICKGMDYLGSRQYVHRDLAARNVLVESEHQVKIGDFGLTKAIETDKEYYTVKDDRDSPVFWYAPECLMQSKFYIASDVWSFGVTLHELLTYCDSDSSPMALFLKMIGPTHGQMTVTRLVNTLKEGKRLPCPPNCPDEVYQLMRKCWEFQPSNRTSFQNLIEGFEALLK
- method-summary: JAK kinase assay (HTRF, phosphorylation of TK substrate-biotin), JAK1
- Assay type: biochemical
- run-conditions: HTRF assay, ATP at Km (7 μM); read-out: JAK1 kinase inhibitory activity (EC50 indicator)
In this section we review reported EC50 values for a set of compounds.

{"compound": "O=C(c1ccncc1)N1[C@@H]2CC[C@@H]1CN(c1ncnc3[nH]ccc13)C2 [Example 242]", "EC50": "< 100 nM"}
{"compound": "O=C(c1ccc2cc[nH]c2c1)N1[C@@H]2CC[C@@H]1CN(c1ncnc3[nH]ccc13)C2 [Example 357]", "EC50": "< 100 nM"}
{"compound": "Cc1c(C(=O)N2CCN(c3ccnc4[nH]ccc34)CC23CC3)sc2ccccc12 [Example 232]", "EC50": "< 100 nM"}

Please find the next compound below.
QUERY: Given the compound Cc1cc(S(N)(=O)=O)ccc1OCC(=O)N1CCN(c2ncnc3[nH]ccc23)CC12CC2 [Example 411] , what is its reported EC50?
RESULT: < 100 nM

* * *

- subject-of-test: JAK2 (catalytic domain, His-tag) (Homo sapiens)
- Construct: All four purified enzymes contain only the catalytic domain; His (N); purchased Carna Biosciences, Inc; host or cells: baculovirus expression system
- Sequence (O60674 849-1124 limits assumed): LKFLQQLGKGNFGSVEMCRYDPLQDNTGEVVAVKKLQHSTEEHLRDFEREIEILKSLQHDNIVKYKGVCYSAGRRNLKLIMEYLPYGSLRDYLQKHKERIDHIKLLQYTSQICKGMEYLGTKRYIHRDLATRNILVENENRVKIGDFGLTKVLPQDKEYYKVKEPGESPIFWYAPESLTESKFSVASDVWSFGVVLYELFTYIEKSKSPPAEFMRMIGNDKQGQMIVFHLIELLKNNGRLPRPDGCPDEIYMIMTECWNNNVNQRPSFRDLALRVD
- method-summary: JAK kinase assay (HTRF, phosphorylation of TK substrate-biotin), JAK2
- Assay type: biochemical
- run-conditions: ATP at Km (4 μM); read-out: JAK2 kinase inhibitory activity (EC50 indicator)
In this section we review reported EC50 values for a set of compounds.

Examples with their reported EC50 follow.
{"compound": "CS(=O)(=O)c1ccc2[nH]c(C(=O)N3C4CCC3CN(c3ncnc5[nH]ccc35)C4)cc2c1", "EC50": "< 100 nM"}
{"compound": "O=C(c1cnc2ccccc2n1)N1CCN(c2ncnc3[nH]ccc23)CC12CC2", "EC50": "< 100 nM"}
{"compound": "N#CCCN1CCCC(C(=O)N2CCN(c3ncnc4[nH]ccc34)CC23CC3)C1 (centres unmarked)", "EC50": "100 to 500 nM"}

QUERY: Given the compound O=C(c1cccc(-c2ccccc2)c1)N1CCN(c2ncnc3[nH]ccc23)CC12CC2 , what is its reported EC50?
RESULT: < 100 nM

QUERY: Given the compound CC(C#N)c1cccc(C(=O)N2CCN(c3ncnc4[nH]ccc34)CC23CC3)c1 (centres unmarked) , what is its reported EC50?
RESULT: < 100 nM

QUERY: Given the compound N#Cc1ccc(C(F)(F)C(=O)N2[C@@H]3CC[C@H]2CN(c2ncnc4[nH]ccc24)C3)cc1 , what is its reported EC50?
RESULT: < 100 nM

QUERY: Given the compound O=C(c1ccccc1)N1CCN(c2ncnc3[nH]ccc23)CC12CC2 , what is its reported EC50?
RESULT: < 100 nM

QUERY: Given the compound N#Cc1ccc(CC(=O)N2CCN(c3ncnc4[nH]ccc34)CC23CC3)cc1 , what is its reported EC50?
RESULT: < 100 nM

QUERY: Given the compound Cc1cncc(C(=O)N2[C@@H]3CC[C@H]2CN(c2ncnc4[nH]ccc24)C3)n1 , what is its reported EC50?
RESULT: 100 to 500 nM

QUERY: Given the compound O=C(C1Cc2ccccc21)N1C2CCC1CN(c1ncnc3[nH]ccc13)C2 (centres unmarked) , what is its reported EC50?
RESULT: 100 to 500 nM

QUERY: Given the compound CS(=O)(=O)c1cccc(CC(=O)N2CCN(c3ncnc4[nH]ccc34)CC23CC3)c1 , what is its reported EC50?
RESULT: 100 to 500 nM

QUERY: Given the compound CC(C)S(=O)(=O)c1ccc(C(=O)N2CCN(c3ncnc4[nH]ccc34)CC23CC3)cc1 , what is its reported EC50?
RESULT: < 100 nM

QUERY: Given the compound O=C(c1ncco1)N1[C@@H]2CC[C@@H]1CN(c1ncnc3[nH]ccc13)C2 , what is its reported EC50?
RESULT: 100 to 500 nM

QUERY: Given the compound O=C(c1ccc2[nH]ccc2c1)N1CCN(c2ncnc3[nH]ccc23)CC12CC2 , what is its reported EC50?
RESULT: < 100 nM

QUERY: Given the compound O=C(c1cc2ccccc2s1)N1[C@@H]2CC[C@@H]1CN(c1ncnc3[nH]ccc13)C2 , what is its reported EC50?
RESULT: < 100 nM

QUERY: Given the compound O=C(Cc1cccnc1)N1CCN(c2ncnc3[nH]ccc23)CC12CC2 , what is its reported EC50?
RESULT: < 100 nM

QUERY: Given the compound COCCCNC(=S)N1[C@@H]2CC[C@H]1CN(c1ncnc3[nH]ccc13)C2 , what is its reported EC50?
RESULT: 100 to 500 nM

These entries and their values trace back to patent US9346809B2.
